Would you mind telling me the reported pIC50 of each entry?
Target: BTK kinase (Homo sapiens)
Construct: purchased Invitrogen PR5442A
Sequence (Q06187 whole entry): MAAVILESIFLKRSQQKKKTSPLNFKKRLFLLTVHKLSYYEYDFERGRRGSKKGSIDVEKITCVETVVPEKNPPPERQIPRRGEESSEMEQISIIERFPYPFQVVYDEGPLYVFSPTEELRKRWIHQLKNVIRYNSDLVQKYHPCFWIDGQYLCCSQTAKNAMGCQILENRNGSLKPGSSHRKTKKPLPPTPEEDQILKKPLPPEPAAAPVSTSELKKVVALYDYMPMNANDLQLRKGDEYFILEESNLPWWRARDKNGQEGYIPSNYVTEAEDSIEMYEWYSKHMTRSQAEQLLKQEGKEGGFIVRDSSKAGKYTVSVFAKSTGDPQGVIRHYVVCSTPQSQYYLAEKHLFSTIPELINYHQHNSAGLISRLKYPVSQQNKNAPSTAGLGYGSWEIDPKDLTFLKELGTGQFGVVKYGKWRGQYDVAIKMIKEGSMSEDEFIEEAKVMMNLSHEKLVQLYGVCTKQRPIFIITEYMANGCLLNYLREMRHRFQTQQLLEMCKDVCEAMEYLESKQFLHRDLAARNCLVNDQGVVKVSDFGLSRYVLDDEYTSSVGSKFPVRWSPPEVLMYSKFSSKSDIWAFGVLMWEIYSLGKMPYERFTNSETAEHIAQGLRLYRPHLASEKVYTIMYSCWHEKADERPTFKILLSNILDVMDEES
Assay: Assay of inhibition activity of BTK in vitro (HTRF kit, read on Envision)
Type: biochemical
Settings: 1.0 nM BTK, 1 μM biotin-TK1 peptide, 20 μM ATP, 23° C., tested by Envision; read-out: BTK IC50
Experimental: Assay of Inhibition Activity of BTK In Vitro The inhibition of compounds on BTK kinase was evaluated by […] detected by Envision, using the IC50 value of the compounds as index. BTK kinase: Invitrogen-PR5442A HTRF Assay Kit: Cisbio-62TKOPEJ […] The reaction was stopped by adding 10 μL Detection Reagent to each well of Assay plate, and the plate was left in incubator at 23° C. for 1 h before read on Envision. Data analysis: The IC50 values of compounds were calculated using Excel fit.
pIC50: −log10 of the molar value.

Task item: Determine its reported pIC50: CN(C)C/C=C/C(=O)N(C)CCn1nc(-c2ccc(Oc3ccccc3)cc2)c2c(N)n[nH]c(=O)c21
Reply: > 7.00

Task item: Determine its reported pIC50: C=CC(=O)N1CCCC(n2nc(-c3ccc(Oc4ccccc4)cc3)c3c(N)nn(CC(F)(F)F)c(=O)c32)C1 (stereo not drawn)
Reply: 5.00 to 6.00

Task item: Determine its reported pIC50: C=CC(=O)N1CCC[C@@H](Nc2ncnc3[nH]cc(-c4ccccc4)c(=O)c23)C1
Reply: 5.00 to 6.00

Task item: Determine its reported pIC50: C=CC(=O)N1CCC[C@@H](Nc2ncnc(N)c2C(=O)c2ccc(Oc3ccccc3)cc2C)C1
Reply: 6.00 to 7.00

Task item: Determine its reported pIC50: Cc1ccn2c(=O)c(-c3cccc(-c4cn(C)c(=O)c(Nc5ccc([C@@H]6C(=O)NCCN6C)cc5)n4)c3C)ccc2c1
Reply: 5.00 to 6.00

Task item: Determine its reported pIC50: C=CC(=O)N1CCCC(n2nc(-c3ccc(Oc4ccccc4)cc3)c3c(N)noc(=O)c32)C1 (stereo not drawn)
Reply: 5.00 to 6.00

Task item: Determine its reported pIC50: C=CS(=O)(=O)N[C@H]1CC[C@@H](n2nc(-c3ccc(Oc4ccccc4)cc3)c3c(N)n[nH]c(=O)c32)CC1
Reply: > 7.00

Task item: Determine its reported pIC50: C=CC(=O)N[C@H]1CC[C@@H](n2nc(-c3ccc(Oc4ccccn4)cc3)c3c(N)n[nH]c(=O)c32)CC1
Reply: > 7.00

Task item: Determine its reported pIC50: C=CS(=O)(=O)N[C@H]1CC[C@@H](n2nc(-c3ccc(Oc4ccccn4)cc3)c3c(N)n[nH]c(=O)c32)CC1
Reply: > 7.00

Task item: Determine its reported pIC50: CN(C)C/C=C/C(=O)N1CCC[C@@H](n2nc(-c3ccc(OC4Cc5ccccc5C4)cc3)c3c(N)n[nH]c(=O)c32)C1
Reply: > 7.00

Task item: Determine its reported pIC50: C=CC(=O)N1CCCC(n2nc(-c3ccc(Oc4ccccc4)nc3)c3c(N)n[nH]c(=O)c32)C1 (stereo not drawn)
Reply: > 7.00

Task item: Determine its reported pIC50: C=CC(=O)N1CCCC(c2nc3cnc(Nc4ccc(OCCOC)cc4)nc3[nH]2)C1 (stereo not drawn)
Reply: 5.00 to 6.00

Task item: Determine its reported pIC50: C=CC(=O)N1CCC[C@@H](Nc2ncnc(N)c2C(=O)c2ccc(Oc3ccccc3)cc2)C1
Reply: 6.00 to 7.00

Task item: Determine its reported pIC50: C=CC(=O)Nc1ccc2ncn(-c3ncnc(Nc4ccc(OCCOC)cc4)n3)c2c1
Reply: 5.00 to 6.00

Task item: Determine its reported pIC50: C=CC(=O)N1CCC[C@@H](Nc2cc3ncc(-c4ccc(Oc5ccccc5)cc4)c(=O)n3cn2)C1
Reply: 5.00 to 6.00

---

target: BTK kinase (Homo sapiens); construct: purchased Invitrogen PR5442A; experiment: Assay of inhibition activity of BTK in vitro (HTRF kit, read on Envision); assay type: biochemical; conditions: 1.0 nM BTK, 1 μM biotin-TK1 peptide, 20 μM ATP, 23° C., tested by Envision; read-out: BTK IC50
Would you mind telling me the reported IC50 of each entry?

Task item: Look up and report IC50, with BTK kinase (Homo sapiens) as system, for C=CC(=O)N1CCC[C@@H](n2nc(-c3ccc(C(=O)N4CCCC4)cc3)c3c(N)n[nH]c(=O)c32)C1
Reply: < 100 nM

Task item: Look up and report IC50, with BTK kinase (Homo sapiens) as system, for C=CC(=O)N1CCCC(c2c3c(=O)[nH]nc(N)c3nn2-c2ccc(Oc3ccccc3)cc2)C1 (centres unmarked)
Reply: 100 to 1000 nM

Task item: Look up and report IC50, with BTK kinase (Homo sapiens) as system, for C=CC(=O)N1CCCC(n2nc(-c3ccc(Oc4ccccc4C)cc3)c3c(N)n[nH]c(=O)c32)C1 (centres unmarked)
Reply: < 100 nM

Task item: Look up and report IC50, with BTK kinase (Homo sapiens) as system, for C=CC(=O)N1CCCC(n2nc(-c3ccc(Oc4ccccc4)cc3)c3c(N)nn(CCO)c(=O)c32)C1 (centres unmarked)
Reply: 100 to 1000 nM

Task item: Look up and report IC50, with BTK kinase (Homo sapiens) as system, for C=CC(=O)N1CCCC(n2nc(-c3ccc(Oc4ccccc4)cc3)c3c(N)n[nH]c(=O)c32)C1 (centres unmarked)
Reply: < 100 nM

Task item: Look up and report IC50, with BTK kinase (Homo sapiens) as system, for C=CC(=O)Nc1cccc(-n2nc3c(=O)[nH]nc(N)c3c2-c2ccc(Oc3ccccc3)cc2)c1
Reply: < 100 nM

Task item: Look up and report IC50, with BTK kinase (Homo sapiens) as system, for C=CC(=O)N1CCC[C@@H]1Cn1nc(-c2ccc(Oc3ccccc3)cc2)c2c(N)n[nH]c(=O)c21
Reply: < 100 nM

Task item: Look up and report IC50, with BTK kinase (Homo sapiens) as system, for Cc1c(-c2cc(Nc3ccc(N4CCN(C)CC4)cn3)c(=O)n(C)c2)cccc1-c1ccc(-c2ccccc2)n(C)c1=O
Reply: 1000 to 10000 nM

Task item: Look up and report IC50, with BTK kinase (Homo sapiens) as system, for C=CC(=O)N1CCC[C@@H](n2nc(-c3ccc(OC4CCCC4)cc3)c3c(N)n[nH]c(=O)c32)C1
Reply: < 100 nM

Task item: Look up and report IC50, with BTK kinase (Homo sapiens) as system, for C=CC(=O)N1CCC[C@@H](n2nc(-c3ccc(Oc4ccccc4)cc3)c3c(N)n[nH]c(=O)c32)C1
Reply: < 100 nM

Task item: Look up and report IC50, with BTK kinase (Homo sapiens) as system, for C=CC(=O)N1CCC[C@@H](n2nc(-c3ccc(Oc4ccc(C)nn4)cc3)c3c(N)n[nH]c(=O)c32)C1
Reply: 100 to 1000 nM

Task item: Look up and report IC50, with BTK kinase (Homo sapiens) as system, for C=CC(=O)N1CCC[C@@H](n2nc(-c3ccc(OC4CC5CC5C4)cc3)c3c(N)n[nH]c(=O)c32)C1 (some centres unmarked)
Reply: < 100 nM

Task item: Look up and report IC50, with BTK kinase (Homo sapiens) as system, for C=CC(=O)N1CCC[C@@H](n2nc(-c3ccc(Oc4cc(C)ccn4)cc3)c3c(N)n[nH]c(=O)c32)C1
Reply: < 100 nM

Task item: Look up and report IC50, with BTK kinase (Homo sapiens) as system, for C=CC(=O)N[C@H]1CC[C@H](n2nc(-c3ccc(Oc4ccccc4)cc3)c3c(N)n[nH]c(=O)c32)CC1
Reply: < 100 nM

Task item: Look up and report IC50, with BTK kinase (Homo sapiens) as system, for C=CC(=O)N1CCC[C@@H](n2nc(-c3ccc(Oc4ncccc4C)cc3)c3c(N)n[nH]c(=O)c32)C1
Reply: < 100 nM

Task item: Look up and report IC50, with BTK kinase (Homo sapiens) as system, for C=CC(=O)N1CCC[C@@H](n2nc(-c3ccc(-n4cc5ccccc5n4)cc3)c3c(N)n[nH]c(=O)c32)C1
Reply: < 100 nM

Task item: Look up and report IC50, with BTK kinase (Homo sapiens) as system, for Nc1n[nH]c(=O)c2c1c(-c1ccc(Oc3ccccc3)cc1)nn2[C@@H]1CCCN(C(=O)/C=C/CN2CCOCC2)C1
Reply: < 100 nM

Task item: Look up and report IC50, with BTK kinase (Homo sapiens) as system, for C=CC(=O)N1CCC[C@@H](n2nc(-c3ccc(Oc4ccccn4)cc3)c3c(N)n[nH]c(=O)c32)C1
Reply: < 100 nM

Task item: Look up and report IC50, with BTK kinase (Homo sapiens) as system, for C=CC(=O)N1CCC[C@@H](Nc2ncnc(N)c2-n2ncc3cc(Oc4ccccc4)ccc32)C1
Reply: 1000 to 10000 nM

Task item: Look up and report IC50, with BTK kinase (Homo sapiens) as system, for C=CC(=O)Nc1cccc(-n2cnc3cnc(Nc4ccc(Oc5ccccc5)cc4)nc32)c1
Reply: 1000 to 10000 nM

Task item: Look up and report IC50, with BTK kinase (Homo sapiens) as system, for Cc1c(-c2cc(Nc3ccc(C4C(=O)NCCN4C)cc3)c(=O)n(C)c2)cccc1-c1ccc(-c2ccccc2)n(C)c1=O (centres unmarked)
Reply: 1000 to 10000 nM

Task item: Look up and report IC50, with BTK kinase (Homo sapiens) as system, for C=CC(=O)N1CCC[C@@H](n2nc(-c3ccc(Oc4ccc(C)cn4)cc3)c3c(N)n[nH]c(=O)c32)C1
Reply: < 100 nM

Task item: Look up and report IC50, with BTK kinase (Homo sapiens) as system, for C=CC(=O)Nc1ccc(-c2nc3cnc(Nc4ccc(OCCOC)cc4)nc3[nH]2)cc1
Reply: < 100 nM

Task item: Look up and report IC50, with BTK kinase (Homo sapiens) as system, for C=CC(=O)N1CCC[C@@H](n2nc(-c3ccc(Oc4ccc(F)cn4)cc3)c3c(N)n[nH]c(=O)c32)C1
Reply: < 100 nM

Task item: Look up and report IC50, with BTK kinase (Homo sapiens) as system, for C=CC(=O)N1CCC[C@@H](Nc2ncnc(N)c2C(=O)c2ccc(N(C)c3ccccc3)cc2)C1
Reply: 1000 to 10000 nM

Task item: Look up and report IC50, with BTK kinase (Homo sapiens) as system, for C=CC(=O)N1CCCC(n2c(=O)c(-c3ccc(Oc4ccccc4)cc3)cc3c(N)ncnc32)C1 (centres unmarked)
Reply: 100 to 1000 nM

Task item: Look up and report IC50, with BTK kinase (Homo sapiens) as system, for C=CC(=O)N1CCC[C@@H](n2nc(-c3ccc(Oc4cccc(C)n4)cc3)c3c(N)n[nH]c(=O)c32)C1
Reply: < 100 nM

Task item: Look up and report IC50, with BTK kinase (Homo sapiens) as system, for C=CC(=O)Nc1ccc2ncn(-c3nc(Nc4ccc(OCCOC)cc4)ncc3F)c2c1
Reply: 1000 to 10000 nM

Task item: Look up and report IC50, with BTK kinase (Homo sapiens) as system, for C=CC(=O)N1CCCC(n2nc(-c3ccc(Oc4ccccn4)cc3)c3c(N)n[nH]c(=O)c32)C1 (centres unmarked)
Reply: < 100 nM
